procedure summary: folding stability dG unfold (combined trypsin and chymotrypsin); higher = more stable
param class (str): category from folding stability dG unfold; see ranges lower level (below 1 kcal/mol), middle level (1 kcal/mol to below 3 kcal/mol), upper level (3 kcal/mol or more)

Example entries and their recorded answers appear below.
{"residues": "SAGGSAGGSKKVKEVTITVKNKDGKTVKITKIYKKKDGSKYVLIKDKKTKKTYKISLEDLKKLSAGGSAGGS [r12_488_TrROS_Hall]", "discrete label": "middle level"}
{"residues": "SAGGSAGGGPKVTVEVTESKVYELEDGSYVAVNTYTVTFEAEGKTVKVTFYRTFPKGFAGGPFSSAGGSAGG [r6_799_TrMRF]", "discrete label": "middle level"}
{"residues": "SAGGSAGGSAGKQPIEMWFMFPNGVAIVLRIKVDPPSPKAKIDAIEVVPVRDPDNGKWRFSAGGSAGGSAGG [r11_919_TrROS]", "discrete label": "middle level"}

Q: Which folding stability dG unfold category applies to SMGLTKKERVITIVKEAYAKNPDKKITLRYADIEATTPEKMSAEEIEKLLKEVTGIKDIKIYPVKPDDPESA [r9_738_TrMRF] here?
Ans: lower level

Q: Please indicate the class for MVISPALLREARRAGISDEFLKKAGDVIIPSEVANPEEVKELLAHPGVKKVYPVPPEDPEKLAAAKVVLPGS [r1_248_TrMRF] based on its folding stability dG unfold.
Ans: lower level

Q: Textbook exercise: identify the category of the sequence given here, SAGGSAGGSAMNRYRILLLDPENGKPLVFELPGNMTPEEAKEAAEELAERFGVTVVAIEGFPSAGGSAGGSA [r18_322_TrMRF] , according to its measured value.
Ans: upper level

Q: Record SMPIEVRVDLERLEDGTLLAVIEIRHPDVQVAEDAAIELARELFPEDVELRIETTPDGRVIAPILLPLPESA [r9_646_TrMRF] — which class?
Ans: middle level

Q: Place this sequence in its band: SAGGSAKIEEIASLPAEEIAEAFGLTVISATVERFEDGTVVLTVEIAPPLGPPIRVTFVFGVDPEKSAGGSA [r15_805_TrMRF]
Ans: upper level

Q: Please report the category associated with SAGGSAGGSKIPIHIWVPPGGSPKKAKERIRRYIREQMPPGNKDMPIDDIKIDVHVMPPGQPVSAGGSAGGS [r12_384_TrROS] , nothing else.
Ans: lower level

Q: For this sequence, which bin applies? SAGKTRTINFPGFQIQVQRDPDGKKEITIMFDNPEQRKQMIEQNPFLREFIEWAEKDGLKVEIHVMPPKSAG [r14_873_TrROS]
Ans: middle level

Q: Lab note: sort SAGGSAGGSAGGSSSIYYDPRYPNVAVNPETGEAVTGIPLEELEKLGATPVGPDWVRIDSAGGSAGGSAGGS [r4_306_TrMRF] into the matching folding stability dG unfold band.
Ans: lower level

Q: For this sequence, which bin applies? SAGGSAGGNKSYTVIIRFPMKRKEDPDGEDKKPRPVTIEYTVKSPEDANELKNKLKDNGAEIVPSAGGSAGG [r6_141_TrROS]
Ans: lower level

Q: Just checking, what class would you give SEEELENLPNVVRLELEVEIDGVRVRIETEFRLNEDGSLEVRTRIEVEPLPPPVEVVLDENGELVEVRVESA [r9_456_TrROS_Hall] here?
Ans: upper level
